- test-description: NCATS anti-infectives library activity on HEK293 viability as a counter-qHTS vs the C. elegans viability qHTS (AID 1745854);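 note: HEK293 cells exposed to compounds for 24 hr before the viability read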
- condition-label: HEK293 viability counter-screen; series mostly up to 41.8 µM
Records with an inconclusive call do not appear. Calls of active or inactive are those of the source. Calls come from the whole dose curve; as a rule, active = well fitted cell-killing curve with a large enough effect; inconclusive = small, poorly fitted or top-dose-only effect; inactive = flat fitted curve, though single readings scatter.
Outcome codes: 1.0 for active, 0.0 for inactive

[[record]]
smi = "COC(=O)C1=C(C)NC(c2ncc(F)cc2F)=N[C@H]1c1ccc(F)cc1Cl"
assigned_label = 0.0

[[record]]
smi = "O=c1cc(-c2ccc(O)c(O)c2)oc2cc(O[C@@H]3O[C@H](CO)[C@@H](O)[C@H](O)[C@H]3O)cc(O)c12"
assigned_label = 0.0

[[record]]
smi = "Cc1c(-c2ccc(-c3ccccc3F)cc2)nc2ccc(F)cc2c1C(=O)O"
assigned_label = 0.0

[[record]]
smi = "COc1ccc(C(=O)N2CCN(c3ccc4c(c3)CCC(=O)N4)CC2)cc1OC"
assigned_label = 0.0

[[record]]
smi = "CN1C(N)=N[C@](C)(c2cc(NC(=O)c3ccc(F)cn3)ccc2F)CS1(=O)=O"
assigned_label = 0.0

[[record]]
smi = "CC(C)OC(=O)[C@H](C)N[P@](=O)(OC[C@H]1O[C@@H](n2ccc(=O)[nH]c2=O)[C@](C)(F)[C@@H]1O)Oc1ccccc1"
assigned_label = 0.0

[[record]]
smi = "Cc1c(-c2cnccn2)ssc1=S"
assigned_label = 0.0

[[record]]
smi = "C=CC(=O)N1CC/C(=C\\c2ccc(F)c([N+](=O)[O-])c2)C(=O)/C(=C/c2ccc(F)c([N+](=O)[O-])c2)C1"
assigned_label = 1.0

[[record]]
smi = "CC(=O)N1c2ccc(-c3ccc(C(=O)O)cc3)cc2[C@H](Nc2ccc(Cl)cc2)C[C@@H]1C"
assigned_label = 0.0

[[record]]
smi = "c1ccc(CNCc2ccc(CN3CCCNCCNCCCNCC3)cc2)nc1"
assigned_label = 0.0


====

Listing of entries alongside the reported activity change, negative = inhibition.
- test-description: AP1 Signaling Pathway (AID 357);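 note: ME-180 reporter cells stimulated with EGF at its EC50 level; % is set by controls: 0 for no effect and ±100 for the full control effect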
- condition-label: ME-180 (cervical carcinoma) AP-1-bla reporter, EGF-induced, beta-lactamase ratio, 5 h; at 7.69 µM (top of the series) unless noted
Results filed as inconclusive are left out.
result-type: activity change, negative = inhibition (%)

[[record]]
smi = "O=C(c1cnccn1)N1CCC[C@@]2(CCN(c3ccccc3)C2)C1"
endpoint_result = -15.8

[[record]]
smi = "CN(C)c1nc(-c2ccoc2)nc2ccccc12"
endpoint_result = -8.03

[[record]]
smi = "COc1ccc(C(=O)N2CCC3(CC2)CN(c2ccncc2)C3)cc1"
endpoint_result = 4.67

[[record]]
smi = "Cc1nc2cnc(N3CCOCC3)nc2n(C2CC2)c1=O"
endpoint_result = -11.6

[[record]]
smi = "Cc1cnc(CNc2ncncc2-c2c(C)noc2C)cn1"
endpoint_result = 5.13

[[record]]
smi = "O=C(c1cnccn1)N1CCC[C@@]2(CCN(C(c3ccccc3)c3ccccc3)C2)C1"
endpoint_result = 0.193


====

Listing of entries alongside the reported activity, negative = inhibition.
- test-description: qHTS profiling for inhibitors of Plasmodium falciparum proliferation (AID 504749);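 note: 0% = DMSO vehicle and full inhibition = artemisinin control; nearly all actives have a fitted effect of over 60% in size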
- condition-label: P. falciparum in erythrocytes, SYBR Green DNA, 72 h; at 28.7 µM (top of the series); parasite line B
Inconclusive results are not listed.
result-type: activity, negative = inhibition (%)

[[record]]
molecule = "CN=C(N)NCCCC(N)C(=O)O (stereo not given)"
result_type = "activity, negative = inhibition"
endpoint_result = 12.2

[[record]]
molecule = "COc1ccc(CCNC[C@@H](O)c2ccc(O)cc2)cc1OC"
result_type = "activity, negative = inhibition"
endpoint_result = 8.86

[[record]]
molecule = "COc1cc2c(cc1OC)C(c1ccccc1)CN(C)CC2 (stereo not given)"
result_type = "activity, negative = inhibition"
endpoint_result = -13.2

[[record]]
molecule = "CN1C(=O)CCC1c1cccnc1 (stereo not given)"
result_type = "activity, negative = inhibition"
endpoint_result = 4.61

[[record]]
molecule = "C=C1/C(=C\\C=C2/CCC[C@]3(C)[C@@H]([C@H](C)CCCC(C)(C)O)CC[C@@H]23)C[C@@H](O)C[C@@H]1O"
result_type = "activity, negative = inhibition"
endpoint_result = -9.52

